- Tested on: P. aeruginosa PAOUW
- method.summary: MIC, CLSI broth microdilution in BD Phoenix AST Broth
- Format: cell-based, Pseudomonas aeruginosa
- experimental.parameters: Pseudomonas aeruginosa, strain PAOUW; agent alone; 37°C, 18–22 h; three biological replicates; read-out: MIC
MIC values by entry
Quick reminder: number only, in µg/mL, skip the unit.

C[C@H]1[C@H](NC(=O)/C(=N\OC(C)(C)C(=O)O)c2csc(N)n2)C(=O)N1S(=O)(=O)O [Aztreonam, aztreonam]	2
CC(C)(O/N=C(\C(=O)N[C@@H]1C(=O)N2C(C(=O)[O-])=C(C[n+]3ccccc3)CS[C@H]12)c1csc(N)n1)C(=O)O [Ceftazidime, ceftazidime]	2
C[C@@H](O)[C@H]1C(=O)N2C(C(=O)O)=C(S[C@@H]3CN[C@H](C(=O)N(C)C)C3)[C@H](C)[C@H]12 [Meropenem, meropenem]	1
CO/N=C(\C(=O)N[C@@H]1C(=O)N2C(C(=O)[O-])=C(C[N+]3(C)CCCC3)CS[C@H]12)c1csc(N)n1 [Cefepime, cefepime]	4

Now let's try a different one.
## Task What MIC value was documented for this molecule, CN(C)c1ccc(O)c2c1C[C@H]1C[C@H]3[C@H](N(C)C)C(O)=C(C(N)=O)C(=O)[C@@]3(O)C(O)=C1C2=O [Minocycline, minocycline] ?
## Result 16

Origin of values: paper PMC11823630
